Ref: patent US20080076770A1

Measured melting point, listed per entry.

Reference set (8 entries):
O=C(Nc1ccc(-n2ccnc2)cc1)Nc1ccc(C(F)(F)F)cc1; 209 to 213 °C
O=C(Nc1ccc(N2CCCC2=O)cc1)Nc1ccc(C(F)(F)F)cc1; 282 to 285 °C
O=C(Nc1ccc(C(F)(F)F)cc1)Nc1cccc(N2CCOCC2)c1; 240 to 244 °C
O=C(Nc1ccc(-n2ccnc2)cc1)NC12CC3CC(CC(C3)C1)C2; 272 to 276 °C
O=C(Nc1cccc(N2CCCC2=O)c1)NC12CC3CC(CC(C3)C1)C2; 239 to 242 °C
O=C(Nc1ccc(C(F)(F)F)cc1)Nc1cccc(N2CCCC2=O)c1; 220 to 224 °C
Cc1nccn1-c1ccc(NC(=O)Nc2ccc(C(F)(F)F)cc2)cc1; 234 to 238 °C
O=C(Nc1ccc(N2CCCC2=O)cc1)NC12CC3CC(CC(C3)C1)C2; > 300 °C

*Q* Given "O=C(Nc1ccc(N2CCOCC2)cc1)Nc1ccc(C(F)(F)F)cc1" , state its recorded melting point.
*A* 228 to 232 °C

*Q* How about this compound: "O=C(Nc1ccc(-n2cnc(Cl)c2Cl)cc1)Nc1ccc(C(F)(F)F)cc1"
*A* 221 to 224 °C

----------
Tested on: soluble epoxide hydrolase (sEH)
Assay: Fluorescent assay for mouse and human soluble epoxide hydrolase (CMNPC substrate)
Type: biochemical
Settings: compound concentration 50 nM; recombinant sEH, CMNPC substrate 5 μM, 30° C
Readout Type: % I (%)

Cc1nccn1-c1ccc(NC(=O)Nc2ccc(C(F)(F)F)cc2)cc1; 96
O=C(Nc1ccc(N2CCCC2=O)cc1)Nc1ccc(C(F)(F)F)cc1; 74
O=C(Nc1ccc(-n2ccnc2)cc1)Nc1ccc(C(F)(F)F)cc1; 92
O=C(Nc1ccc(N2CCOCC2)cc1)Nc1ccc(C(F)(F)F)cc1; 87
O=C(Nc1ccc(N2CCCC2=O)cc1)NC12CC3CC(CC(C3)C1)C2; 82
O=C(Nc1ccc(C(F)(F)F)cc1)Nc1cccc(N2CCOCC2)c1; 79
O=C(Nc1ccc(-n2cnc(Cl)c2Cl)cc1)Nc1ccc(C(F)(F)F)cc1; 95
O=C(Nc1ccc(C(F)(F)F)cc1)Nc1cccc(N2CCCC2=O)c1; 84
